system: T1, cynomolgus monkey (Macaca fascicularis) TfR1 (cynomolgus monkey (Macaca fascicularis), UniProt Q5RDH6 89-760 (Pongo abelii entry), limits assumed)
T1 construct: also called cTfR1; cyTfR1
T1 chain: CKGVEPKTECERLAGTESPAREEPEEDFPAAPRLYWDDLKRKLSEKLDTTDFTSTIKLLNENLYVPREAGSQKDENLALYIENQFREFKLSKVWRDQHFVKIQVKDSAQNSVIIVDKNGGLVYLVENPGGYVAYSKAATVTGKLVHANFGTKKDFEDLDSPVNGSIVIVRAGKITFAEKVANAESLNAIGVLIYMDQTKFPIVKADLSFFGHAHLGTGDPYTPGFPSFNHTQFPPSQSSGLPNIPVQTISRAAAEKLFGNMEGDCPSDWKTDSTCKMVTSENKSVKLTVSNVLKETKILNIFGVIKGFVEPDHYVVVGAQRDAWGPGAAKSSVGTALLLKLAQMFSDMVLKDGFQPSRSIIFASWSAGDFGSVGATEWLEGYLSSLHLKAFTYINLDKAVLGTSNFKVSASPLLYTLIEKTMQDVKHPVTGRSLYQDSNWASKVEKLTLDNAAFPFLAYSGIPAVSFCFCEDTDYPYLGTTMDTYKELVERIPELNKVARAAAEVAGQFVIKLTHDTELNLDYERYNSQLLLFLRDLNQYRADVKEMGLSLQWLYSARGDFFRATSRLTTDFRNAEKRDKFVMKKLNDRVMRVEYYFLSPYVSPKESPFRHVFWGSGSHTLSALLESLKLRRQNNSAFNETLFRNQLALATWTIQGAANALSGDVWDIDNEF
assay explanation: ELISA, coated recombinant TfR1, unconjugated Fab
quantity kind: pEC50
# pEC50 is unitless: minus log10 of the molar concentration; print number only

humanized anti-TfR Fab 3M12 VH3/Vk3 (Fab, V domains shown) VH: QVQLQESGPGLVKPSQTLSLTCSVTGYSITSGYYWNWIRQPPGKGLEWMGYITFDGANNYNPSLKNRVSISRDTSKNQFSLKLSSVTAEDTATYYCTRSSYDYDVLDYWGQGTTVTVSS VL: DIQMTQSPSSLSASVGDRVTITCRASQDISNFLNWYQQKPGQPVKLLIYYTSRLHSGVPSRFSGSGSGTDFTLTISSLQPEDFATYYCQQGHTLPYTFGQGTKLEIKR: 8.33
humanized anti-TfR Fab 5H12 VH5 (C33D)/Vk4 (Fab, V domains shown) VH: QVQLVQSGAEVKKPGASVKVSCKASGYSFTDYDINWVRQAPGQGLEWMGWIYPGSGNTRYSERFKGRVTITRDTSASTAYMELSSLRSEDTAVYYCAREDYYPYHGMDYWGQGTLVTVSS VL: DIVMTQSPDSLAVSLGERATINCRASESVDGYDNSFMHWYQQKPGQPPKLLIFRASNLESGVPDRFSGSGSGTDFTLTISSLQAEDVAVYYCQQSSEDPWTFGQGTKLEIKR: 8.46
humanized anti-TfR Fab 3M12 VH4/Vk2 (Fab, V domains shown) VH: QVQLQESGPGLVKPSQTLSLTCTVTGYSITSGYYWNWIRQPPGKGLEWIGYITFDGANNYNPSLKNRVSISRDTSKNQFSLKLSSVTAEDTATYYCTRSSYDYDVLDYWGQGTTVTVSS VL: DIQMTQSPSSLSASVGDRVTITCRASQDISNFLNWYQQKPGQPVKLLIYYTSRLHSGVPSRFSGSGSGTDFTLTISSLQPEDFATYFCQQGHTLPYTFGQGTKLEIKR: 8.85
humanized anti-TfR Fab 3A4 VH3 (N54S)/Vk4 (Fab, V domains shown) VH: EVQLVQSGSELKKPGASVKVSCTASGFNIKDDYMYWVRQPPGKGLEWIGWIDPESGDTEYASKFQDRVTVTADTSTNTAYMELSSLRSEDTAVYYCTLWLRRGLDYWGQGTLVTVSS VL: DIVMTQSPLSLPVTPGEPASISCRSSKSLLHSNGYTYLFWFQQRPGQSPRLLIYRMSNLASGVPDRFSGSGSGTDFTLKISRVEAEDVGVYYCMQHLEYPFTFGGGTKVEIKR: 6.40
humanized anti-TfR Fab 3M12 VH3/Vk2 (Fab, V domains shown) VH: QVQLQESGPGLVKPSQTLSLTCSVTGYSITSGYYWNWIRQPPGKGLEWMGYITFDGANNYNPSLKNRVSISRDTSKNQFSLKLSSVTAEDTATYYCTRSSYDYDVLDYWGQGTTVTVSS VL: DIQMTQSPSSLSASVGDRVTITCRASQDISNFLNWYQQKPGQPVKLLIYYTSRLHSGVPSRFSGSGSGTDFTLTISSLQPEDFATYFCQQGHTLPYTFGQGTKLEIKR: 8.00
humanized anti-TfR Fab 3A4 VH3/Vk4 (Fab, V domains shown) VH: EVQLVQSGSELKKPGASVKVSCTASGFNIKDDYMYWVRQPPGKGLEWIGWIDPENGDTEYASKFQDRVTVTADTSTNTAYMELSSLRSEDTAVYYCTLWLRRGLDYWGQGTLVTVSS VL: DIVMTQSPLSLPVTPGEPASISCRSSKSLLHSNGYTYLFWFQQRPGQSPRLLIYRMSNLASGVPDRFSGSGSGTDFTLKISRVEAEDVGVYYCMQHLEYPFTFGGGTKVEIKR: 6.91

--- query ---
*Q* Which pEC50 is reported for this binder? humanized anti-TfR Fab 5H12 VH5 (C33Y)/Vk3 (Fab, V domains shown) VH: QVQLVQSGAEVKKPGASVKVSCKASGYSFTDYYINWVRQAPGQGLEWMGWIYPGSGNTRYSERFKGRVTITRDTSASTAYMELSSLRSEDTAVYYCAREDYYPYHGMDYWGQGTLVTVSS VL: DIVLTQSPDSLAVSLGERATINCRASESVDGYDNSFMHWYQQKPGQPPKLLIFRASNLESGVPDRFSGSGSRTDFTLTISSLQAEDVAVYYCQQSSEDPWTFGQGTKLEIKR
*A* 8.68

These entries and their values trace back to patent US20230285582A1.
